test system: Staphylococcus epidermidis; assay: Antibacterial activity against methicillin resistant Staphylococcus epidermidis 19-1; format: functional
Activity calls are given as the source filed them. The rule behind the calls is not given here.
propertyMeasured: MIC

Examples with answers:
                                   compound    result
0  CNC(=O)c1cc(Oc2ccc(NC(=O)Nc3cccc(C(F)(F)F)c3)cc2)ccn1    149 µM
1  O=C(Nc1ccc2c(c1)OCO2)Nc1ccc(Cl)c(C(F)(F)F)c1   22.3 µM
2  O=C(Nc1ccc(OC(F)(F)F)cc1)N1CCN(c2ccc(Cl)c(C(F)(F)F)c2)C1=O  inactive
3  CNC(=O)c1cc(Oc2ccc(NC(=O)Nc3cc(C(F)(F)F)ccc3Cl)cc2)ccn1  inactive
4  C[C@H]1COc2c(N3CCN(C)CC3)c(F)cc3c(=O)c(C(=O)O)cn1c23 [LEVOFLOXACIN]   11.1 µM
5  O=C(Nc1ccc(F)cc1)Nc1ccc(Cl)c(C(F)(F)F)c1   6.01 µM

Q: What does the record list as MIC for O=C(Nc1ccc2c(c1)OC(F)(F)O2)Nc1ccc(Cl)c(C(F)(F)F)c1 ?
Ans: 1.27 µM

Q: Subsequent entry: O=C(Nc1ccc(OC(F)F)cc1)Nc1ccc(Cl)c(C(F)(F)F)c1
Ans: 5.25 µM

Q: Queued: O=C(Nc1ccc(Cl)c(C(F)(F)F)c1)Nc1ccc(Cl)c(C(F)(F)F)c1
Ans: 1.2 µM
